measurement-description: Inhibition of cobalt chloride-induced HIF-1 activation expressed in mouse NIH3T3 cells after 8 hrs by luciferase reporter gene assay
Type: cell-based
condition-details: NIH3T3, 8 h
outcome-measure: IC50

compound	IC50
COc1ccc(/C=C/C(=O)c2c(O)cc(OC)cc2OC)cc1 [FLAVOKAWAIN A]	11 µM
Cc1ccc(C(=O)/C=C/c2ccccc2)cc1	> 20 µM
O=C(/C=C/c1ccccc1O)c1ccccc1	> 20 µM
O=C(/C=C/c1ccccc1)c1ccc(F)cc1	> 20 µM
COc1cc(O)c(C(=O)/C=C/c2cccc(C)c2)c(OC)c1	3.6 µM

Now let's try a different one.
Incoming: I have this compound here, O=C(/C=C/c1ccccc1)c1ccc(F)c(F)c1 , and I need its recorded IC50.
Outgoing: > 20 µM
